# experiment: Thermal analysis: differential scanning calorimetry, endotherm
# Type: physicochemical
# experimentalParameters: DSC, temperature rise 5° C./min
// Endotherm lookup, one value per entry
endpointName: Endotherm (mJ/mg)

# compound, unitOfMeasure, recordedNumber
measured = [
    ("Nc1nc(N)c2nc(CN3CCSc4cc(C(=O)N[C@@H](CCCC(=O)O)C(=O)O)ccc43)cnc2n1 [Unground bulk powder]", "mJ/mg", 33.5),
    ("Nc1nc(N)c2nc(CN3CCSc4cc(C(=O)N[C@@H](CCCC(=O)O)C(=O)O)ccc43)cnc2n1 [Jet mill-ground bulk powder]", "mJ/mg", 33.2),
    ("Nc1nc(N)c2nc(CN3CCSc4cc(C(=O)N[C@@H](CCCC(=O)O)C(=O)O)ccc43)cnc2n1 [Centrifugal-ground bulk powder]", "mJ/mg", 32.8),
    ("Nc1nc(N)c2nc(CN3CCSc4cc(C(=O)N[C@@H](CCCC(=O)O)C(=O)O)ccc43)cnc2n1 [Mortar-ground bulk powder]", "mJ/mg", 22.3),
]
